Measured Semi-quantitative analysis of proteins binding to different plaque particles: Abeta-42, listed per entry.
Target: T1, Abeta-42 plaque particles (Homo sapiens, UniProt P05067)
T1 construct: Abeta 1-42
Test: Mass spectroscopy proteomics, semi-quantitative binding affinity of serum proteins (plaqueproteome, Table 2)
Settings: higher number = stronger affinity
measure: Semi-quantitative analysis of proteins binding to different plaque particles: Abeta-42

| molecule | measured_result |
| --- | --- |
| Platelet factor 4 variant (protein) FARAEAEEDGDLQCLCVKTTSQVRPRHITSLEVIKAGPHCPTAQLIATLKNGRKICLDLQALLYKKIIKEHLES | 0 |
| Apolipoprotein C-II (protein) TQQPQQDEMPSPTFLTQVKESLSSYWESAKTAAQNLYEKTYLPAVDEKLRDLYSKSTAAMSTYTGIFTDQVLSVLKGEE | 0 |
| Apolipoprotein F (protein) SLPTEDCENEKEQAVHNVVQLLPGVGTFYNLGTALYYATQNCLGKARERGRDGAIDLGYDLLMTMAGMSGGPMGLAISAALKPALRSGVQQLIQYYQDQKDANISQPETTKEGLRAISDVSDLEETTTLASFISEVVSSAPYWGWAIIKSYDLDPGAGSLEI | 0 |
| Protein S100-A7 (protein) SNTQAERSIIGMIDMFHKYTRRDDKIEKPSLLTMMKENFPNFLSACDKKGTNYLADVFEKKDKNEDKKIDFSEFLSLLGDIATDYHKQSHGAAPCSGGSQ | 2 |
| Ig alpha-2 chain C region (protein) ASPTSPKVFPLSLDSTPQDGNVVVACLVQGFFPQEPLSVTWSESGQNVTARNFPPSQDASGDLYTTSSQLTLPATQCPDGKSVTCHVKHYTNSSQDVTVPCRVPPPPPCCHPRLSLHRPALEDLLLGSEANLTCTLTGLRDASGATFTWTPSSGKSAVQGPPERDLCGCYSVSSVLPGCAQPWNHGETFTCTAAHPELKTPLTANITKSGNTFRPEVHLLPPPSEELALNELVTLTCLARGFSPKDVLVRWLQGSQELPREKYLTWASRQEPSQGTTTYAVTSILRVAAEDWKKGETFSCMVGHEALPLAFTQKTIDRMAGKPTHINVSVVMAEADGTCY | 7 |
| Thioredoxin (protein) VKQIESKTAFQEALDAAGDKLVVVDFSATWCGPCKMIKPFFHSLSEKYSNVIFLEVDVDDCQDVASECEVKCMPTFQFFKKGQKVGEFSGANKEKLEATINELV | 2 |
| Serum amyloid A-4 protein (protein) ESWRSFFKEALQGVGDMGRAYWDIMISNHQNSNRYLYARGNYDAAQRGPGGVWAAKLISRSRVYLQGLIDCYLFGNSSTVLEDSKSNEKAEEWGRSGKDPDRFRPDGLPKKY | 2 |
| Leucine-rich alpha-2-glycoprotein (protein) VTLSPKDCQVFRSDHGSSISCQPPAEIPGYLPADTVHLAVEFFNLTHLPANLLQGASKLQELHLSSNGLESLSPEFLRPVPQLRVLDLTRNALTGLPPGLFQASATLDTLVLKENQLEVLEVSWLHGLKALGHLDLSGNRLRKLPPGLLANFTLLRTLDLGENQLETLPPDLLRGPLQLERLHLEGNKLQVLGKDLLLPQPDLRYLFLNGNKLARVAAGAFQGLRQLDMLDLSNNSLASVPEGLWASLGQPNWDMRDGFDISGNPWICDQNLSDLYRWLQAQKDKMFSQNDTRCAGPEAVKGQTLLAVAKSQ | 2 |
| Ig lambda chain V-III region (protein) SELTQDPAVSVALGQTVRITCQGDSLRSYYASWYQQKPGQAPVLVIYGKNNRPSGIPDRFSGSSSGNTASLTITGAQAEDEADYYCNSRDSS | 0 |
| Zinc-alpha-2-glycoprotein (protein) QENQDGRYSLTYIYTGLSKHVEDVPAFQALGSLNDLQFFRYNSKDRKSQPMGLWRQVEGMEDWKQDSQLQKAREDIFMETLKDIVEYYNDSNGSHVLQGRFGCEIENNRSSGAFWKYYYDGKDYIEFNKEIPAWVPFDPAAQITKQKWEAEPVYVQRAKAYLEEECPATLRKYLKYSKNILDRQDPPSVVVTSHQAPGEKKKLKCLAYDFYPGKIDVHWTRAGEVQEPELRGDVLHNGNGTYQSWVVVAVPPQDTAPYSCHVQHSSLAQPLVVPWEAS | 5 |
| Serum paraoxonase/arylesterase (protein) AKLIALTLLGMGLALFRNHQSSYQTRLNALREVQPVELPNCNLVKGIETGSEDLEILPNGLAFISSGLKYPGIKSFNPNSPGKILLMDLNEEDPTVLELGITGSKFDVSSFNPHGISTFTDEDNAMYLLVVNHPDAKSTVELFKFQEEEKSLLHLKTIRHKLLPNLNDIVAVGPEHFYGTNDHYFLDPYLQSWEMYLGLAWSYVVYYSPSEVRVVAEGFDFANGINISPDGKYVYIAELLAHKIHVYEKHANWTLTPLKSLDFNTLVDNISVDPETGDLWVGCHPNGMKIFFYDSENPPASEVLRIQNILTEEPKVTQVYAENGTVLQGSTVASVYKGKLLIGTVFHKALYCEL | 2 |
